- experiment: Human HepG2 cell viability assay in 384 well format
- Format: toxicity, cell-based
- Design: dose 125 nL, time 70.5 hour; concentration not given beside the values
- experimental.setup: HepG2 cells, read-out: Inhibition
I'd be grateful if you could share measured cytotoxicity at 70.5 h for these entries.
Numbers only, in %.

> print(dat)
                                   compound  recorded.result
1  CC(=O)c1cccc(NC(=O)NCCCc2nc(C(C)C)no2)c1            -1.88
2  CCOCC(O)CN1CCN(C(=O)c2cc(F)cc(F)c2)CC1 (stereo unspecified)            -2.71
3  CN(C)C(=O)CN1CCCC(Cc2ccc(N3CCCC3)nn2)C1 (stereo unspecified)            -9.12
4   CCc1ccccc1Nc1noc2c1CN(C(=O)CNC(C)=O)CC2             6.37
5  Cc1cc(C)n(CC2CN(Cc3cscn3)CCO2)n1 (stereo unspecified)            -4.76

Now look at this one.
Enquiry: Look up cytotoxicity at 70.5 h for this compound: Cc1cn2c(n1)CCC(NC(=O)c1oc(Br)cc1C)C2 (stereo unspecified)
Return: -11.5

* * *

- experiment: Human HepG2 cell viability assay in 384 well format
- Type: toxicity, cell-based
- Parameters: dose 125 nL, time 70.5 hour; concentration not given beside the values
- experimental.setup: HepG2 cells, read-out: Inhibition
readout: cytotoxicity at 70.5 h (%)
Answers are plain numbers, in %.

> print(dat)
                                   molecule                 readout  recorded.result
1  CC(=O)c1cccc(NC(=O)CCn2nc(-c3cccs3)oc2=O)c1  cytotoxicity at 70.5 h            -18.2
2  Cc1ccccc1C(=O)N1CCC(n2nnc3cc(F)ccc32)CC1  cytotoxicity at 70.5 h            -12.1
3  CC(=O)NC1CCCN(C(=O)NCc2ccc(-n3cccn3)cc2)C1 (configuration not stated)  cytotoxicity at 70.5 h             -2.4
4  O=C(c1ccnnc1)N1CC[C@H]2[C@H]1CCN2S(=O)(=O)C1CC1  cytotoxicity at 70.5 h           -0.791
5  Fc1ccc(C2CN(CCc3ccncc3)CCO2)cc1 (configuration not stated)  cytotoxicity at 70.5 h             14.4
6  Cc1ccc(C(=O)N2CCc3ncnc(-c4cnn(C)c4)c3CC2)o1  cytotoxicity at 70.5 h            -7.08
7  N#CCCN(C(=O)CN1CCCC1C1CCCCC1)c1ccccc1 (configuration not stated)  cytotoxicity at 70.5 h             11.9
8               Cn1c(CO)nnc1SCc1c(F)cccc1Br  cytotoxicity at 70.5 h            -5.69

For each of the molecules below, state cytotoxicity at 70.5 h.
1. CC(C)CC(C)NC1CCN(c2cccc(-c3cscn3)c2)CC1 (configuration not stated)
2. CC(C)(C)n1cc(C2=CCN(CCc3ccccc3)CC2)cn1
3. CC(C)NC(=O)c1sc2ccccc2c1[C@H]1CC[C@H](CN)CC1
4. COc1ccc(C2C3=C(COC3=O)Nc3[nH]nc(C)c32)cc1OC (configuration not stated)
5. Clc1ccc2[nH]c3c(c2c1)CCCC3c1nn[nH]n1 (configuration not stated)
6. CCOCC1CN(C(=O)c2cc(C)oc2C)Cc2c1cnn2C (configuration not stated)

Return:
-8.68
-3.25
38.7
-22.8
-6.09
-0.121

The following molecules each have a reported value; give each one's cytotoxicity at 70.5 h.
1. CC(=O)N1CCCC1c1nc(C)c2c(n1)N(Cc1ccccn1)CCC2 (configuration not stated)
2. CC(C)N(CC(N)=O)Cc1csc(-c2ncccn2)n1
3. Cc1cc(CN2CCc3nn(C)c(=O)cc3C2)no1

Return:
1: -8.03; 2: -2.81; 3: -2.94

Please state cytotoxicity at 70.5 h for every molecule in the list that follows.
1. CC(C(=O)NCCN1CCN(C)CC1)n1cncn1 (configuration not stated)
2. O=C(c1ccc2cccc(F)c2n1)N1CCN(CCn2cncn2)CC1
3. CN1CCC(c2cc(C(F)(F)F)n3ccnc3n2)CC1

Return:
[-7.19, -9.3, 24.8]

Count: 8. Required value per item: cytotoxicity at 70.5 h.
1. Cc1cc(C)c(CNC(=O)NCCNc2cnccn2)c(=O)[nH]1
2. CC(C)COCc1cncc2c1CCN(C(=O)c1cscn1)C2
3. COc1ccccc1-n1nc(-c2ccco2)n(CC(=O)NC2CC2)c1=O
4. Cn1ccnc1CN1CCC(Cn2cc(-c3ccccc3)nn2)CC1
5. Cc1ccc(CNC(=O)NCc2ccco2)s1
6. COCCCN1C(=O)CC(N2CCN(c3ccc(F)cc3)CC2)C1=O (configuration not stated)
7. Cc1noc(C(C)C)c1C(=O)NCCCN1CCCCCC1=O
8. Cc1cccc(-c2c[nH]c(C3CCCN3C(=O)c3cc(C)n[nH]3)n2)c1 (configuration not stated)

Return:
1: -4.64; 2: -2.6; 3: 10.2; 4: 3.07; 5: -24.6; 6: -1.4; 7: -7.03; 8: -9.63

Provide cytotoxicity at 70.5 h values for the following items, in order.
1. Cc1nn2c(NC(=O)CSc3nccn3C)csc2nc1=O
2. c1cc(CNc2ncc(-c3cnccn3)c([C@@H]3CCCO3)n2)ccn1
3. COc1cccc(CN2CCCC3(CCN(C(CO)CO)C3)C2)c1 (configuration not stated)
4. Cn1cc(C(=O)N2CCC(c3nccn3Cc3ccncc3)CC2)cn1
5. CCS(=O)(=O)N1CCc2ncnc(OC)c2CC1
6. O=c1[nH]c(-c2ccncc2)nc2c1CCN(S(=O)(=O)N1CCCC1)C2
7. COC[C@@H]1CCC[C@@]12CN(C(=O)C1CCOCC1)CCO2
8. CCc1nc(C)c(-c2nccn2CC2CCN(C3CCCC3)CC2)[nH]1

Return:
[6.49, -5.57, -7.1, -7.19, -5.9, -13.7, -7.08, -2.56]

Provide each entry's cytotoxicity at 70.5 h from the list below.
1. Cc1nc(CC(=O)N2CCCCC2c2ccn3ccnc3n2)cs1 (configuration not stated)
2. CC(C)c1nc(C2CCCN(C(=O)c3ccc4nncn4c3)C2)no1 (configuration not stated)
3. CCN(Cc1ccncc1)C(=O)C1COc2c(cccc2OC)C1 (configuration not stated)
4. CN(CC(C)(C)O)C(=O)Nc1ccc(F)c(-n2cccc2)c1
5. CN(C)c1nc2c(c(N3CCC(O)CC3)n1)CN(CC1CCNC1)CC2 (configuration not stated)

Return:
[-12.6, -5.81, 6.05, -9.2, -11.3]

// each molecule listed below needs its cytotoxicity at 70.5 h
1. COCC(NC(=O)NCc1cccc(C#N)c1)c1ccco1 (configuration not stated)
2. COc1cccc(N2CCN(C(=O)c3noc4c3CCCC4)CC2)c1
3. Cc1noc(C)c1CN1CC[C@H]2C[C@H](c3nccs3)O[C@@H]2C1
4. COCCN(Cc1sccc1C)C(=O)C1CCCN(C(N)=O)C1 (configuration not stated)

Return:
1. -2.38
2. -20.2
3. -9.22
4. 9.09

Quick one: give me cytotoxicity at 70.5 h for each item below, same order please.
1. CCN(Cc1ccc(-c2ccccn2)cc1)C1CCS(=O)(=O)C1 (configuration not stated)
2. Cn1cc(CN2CC[C@@H]3O[C@H](C(=O)N4CCOCC4)C[C@@H]32)cn1

Return:
1: -1.78; 2: -5.63
